Kindly supply the reported HepSE_hepatitis values for the records listed here.

Req: # lookup: Hepatotoxicity HepSE_hepatitis, key = CCN1C(=O)NC(c2ccccc2)C1=O (configuration not stated)
Resp: 0

Req: State the measured HepSE_hepatitis (Hepatotoxicity) of CC(C)[N+](C)(CCOC(=O)C1c2ccccc2Oc2ccccc21)C(C)C
Resp: 0

Req: Provide HepSE_hepatitis, tested on Hepatotoxicity, for C[C@H]1C[C@@H]2[C@H]([C@@H](O)C[C@@]3(C)[C@H]2CC[C@]3(O)C(=O)CO)[C@@]2(C)C=CC(=O)C=C12 . Note: call rule not given here.
Resp: 0

Req: Report measured HepSE_hepatitis on Hepatotoxicity; entry: NCCCC(N)(C(=O)O)C(F)F (configuration not stated)
Resp: 0

Req: Write down measured HepSE_hepatitis (Hepatotoxicity) for this compound. Cc1ccc(NC(=O)c2ccc(CN3CCN(C)CC3)cc2)cc1Nc1nccc(-c2cccnc2)n1
Resp: 1

Req: Jot down HepSE_hepatitis (Hepatotoxicity) of C[C@H]1C[C@H]2[C@@H]3CCC4=CC(=O)C=C[C@]4(C)[C@@]3(Cl)[C@@H](O)C[C@]2(C)[C@@]1(O)C(=O)CO .
Resp: 0

Req: Print Hepatotoxicity HepSE_hepatitis for CC(C(=O)O)c1cccc(Oc2ccccc2)c1 (configuration not stated) .
Resp: 1

Req: Provide HepSE_hepatitis, system Hepatotoxicity, entry C[C@]12COC(=O)C[C@@H]1CC[C@@H]1[C@@H]2CC[C@@]2(C)[C@H]1CC[C@]2(C)O; note: call rule not given here
Resp: 0

Req: Report measured HepSE_hepatitis on Hepatotoxicity; entry: CN1CCC[C@@H]1CCO[C@](C)(c1ccccc1)c1ccc(Cl)cc1
Resp: 0

Req: # lookup: Hepatotoxicity HepSE_hepatitis, key = COC(=O)C1=C(C)NC(C)=C(C(=O)OC)C1c1ccccc1[N+](=O)[O-]
Resp: 1

Req: State the measured HepSE_hepatitis (Hepatotoxicity) of CCN(C(C)=O)c1cccc(-c2ccnc3c(C#N)cnn23)c1
Resp: 0

Req: Please report the measured HepSE_hepatitis for COc1ccccc1OCCNCC(O)COc1cccc2[nH]c3ccccc3c12 (configuration not stated) tested on Hepatotoxicity.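 Note: Hepatitis-related hepatic side effect score taken from the training data of DILIps, a prediction system for drug-induced liver injury.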 Note: call rule not given here.
Resp: 0
